The values you see were collected from patent US10201158B2.

Below, each entry is listed with its recorded Preventive value.
# Test system: Sphaerotheca fuliginea
# protocol_notes: Cucumber powdery mildew preventive test
# Assay type: in vivo
# conditions_used: in vivo

compound	Preventive value
CC(C)C1CCC(Cc2ccc(Cl)cc2)C1(O)Cn1cncn1 (centres unmarked) [Ipconazole (b-25), Ipconazole]	50

# Preventive value of Cc1cc(C(F)(F)F)nn1CC(=O)N1CCC(c2nc(C3=NOC(c4c(F)cccc4F)C3)cs2)CC1 (centres unmarked) [Oxathiapiprolin (b-84), Oxathiapiprolin] = 17

// recorded Preventive value for O=C(Nc1ccccc1)N(Cc1ccc(Cl)cc1)C1CCCC1 [Pencycuron (b-76), Pencycuron] : 33

Query CCCC1COC(Cn2cncn2)(c2ccc(Cl)cc2Cl)O1 (centres unmarked) [Propiconazole (b-27), Propiconazole] yields Preventive value of 40

Consider N#Cc1ccccc1NC(=O)c1snc(Cl)c1Cl [Isotianil(b-46)] . Its measured Preventive value is 33

What the record says about CCn1cc(C(=O)O)c(=O)c2cc3c(cc21)OCO3 [Oxolinic acid] : Preventive value is 33

Measured Preventive value, OP(O)O [Phosphorous acid (b-105), Phosphorous acid] : 33

Reported Preventive value ( CC1COC(Cn2cncn2)(c2ccc(Oc3ccc(Cl)cc3)cc2Cl)O1 (centres unmarked) [Difenoconazole (b-29), Difenoconazole] ) = 40

---

# Test system: Sphaerotheca fuliginea
# protocol_notes: Cucumber powdery mildew preventive test
# Format: in vivo
# conditions_used: in vivo
Recorded measurements of Preventive value, one per entry

                                   molecule            assay_target        observable  measurement
0  CCCCC(C#N)(Cn1cncn1)c1ccc(Cl)cc1 (stereo not shown) [Myclobutanil (b-35), Myclobutanil]  Sphaerotheca fuliginea  Preventive value           33
1  CCCN(CCOc1c(Cl)cc(Cl)cc1Cl)C(=O)n1ccnc1 [Prochloraz(b-21)]  Sphaerotheca fuliginea  Preventive value           50
2  Cc1nn(C)c(Nc2c(F)cc(Cl)cc2F)c1-c1ccc(F)cc1Cl [Compound of formula (XV)-1 (b-89)]  Sphaerotheca fuliginea  Preventive value           40

Noted for c1ccc2[nH]c(-c3cscn3)nc2c1 [Thiabendazole (b-60), Thiabendazole] : its Preventive value reads 40

---

The reader will find reported Control value values listed item by item below.
# Tested on: Blumeria graminis
# protocol_notes: Barley powdery mildew preventive test
# Type: in vivo
# conditions_used: Table 4; treatment concentration 2 ppm; 8 days after inoculation

                                   molecule  measurement
0  CC1CC(C)(C)c2cccc(NC(=O)c3cn(C)nc3C(F)F)c21 (centres unmarked)           67
1  Cn1cc(C(=O)Nc2cccc3c2[C@@H]2CC[C@H]3C2=C(Cl)Cl)c(C(F)F)n1 (racemic)           50
2  CC1(CCl)CCC(Cc2ccc(Cl)cc2)C1(O)Cn1cncn1 (centres unmarked)           81
3  Cn1cc(C(=O)Nc2ccccc2-c2cc(F)c(F)c(F)c2)c(C(F)F)n1           61

molecule `COc1cc(F)c(-c2c(Cl)nc(C)n2-c2cccc(F)c2)c(F)c1` , Control value observed: 56

---

Listed here are molecules together with their documented Preventive value.
# System: Pyricularia oryzae
# Assay type: in vivo
# conditions_used: Table 3-2; treatment concentration 10 ppm
Answer as a number with no unit attached.

Reference set (5 entries):
                                   molecule        assay_target        observable  measurement
0  CNC(=O)/C(=N/OC)c1ccccc1CO/N=C(C)/C(=N/OC)C(/C)=N/OC [Orysastrobin (b-53), Orysastrobin]  Pyricularia oryzae  Preventive value           60
1  CC1(C)N=C(c2cnc3ccccc3c2)c2ccccc2C1(F)F [Compound B]  Pyricularia oryzae  Preventive value           73
2  CNC(=O)/C(=N/OC)c1ccccc1COc1cc(C)ccc1C [Dimoxystrobin (b-52), Dimoxystrobin]  Pyricularia oryzae  Preventive value           73
3  CC1(C)N=C(c2cnc3ccccc3c2)c2cccc(F)c2C1(F)F [Compound C]  Pyricularia oryzae  Preventive value           73
4  CC1(C)N=C(c2cnc3ccccc3c2)c2cccc(F)c2C1(C)C [Compound A]  Pyricularia oryzae  Preventive value           73

Now for the molecule whose Preventive value we want.
Entry CO/N=C(/C1=NOCCO1)c1ccccc1Oc1ncnc(Oc2ccccc2Cl)c1F [Fluoxastrobin (b-51), Fluoxastrobin] ; Preventive value = 60
